experimental-protocol: aziridine aldehyde dimer (S-serine-type dimer 3, parent) + tBuNC multicomponent (disrupted Ugi) head-to-tail macrocyclisation of N-terminal Pro peptides; linker inserts CH-CH-N between Pro N and C-terminal C=O (forms Pro N-C bond and C-terminal acyl aziridine N-C(=O) bond)
condition-summary: the molecule shown is the open-chain precursor; 18-membered ring; TFE; 100.0 mM; 4.0 h
endpoint-name: ring closure, isolated yield (%)
Please give a number only; it is taken to be in %.

Req: Quick check: ring closure, isolated yield of `CC(C)C[C@H](NC(=O)CNC(=O)[C@@H]1CCCN1)C(=O)NCC(=O)N[C@H](Cc1ccccc1)C(=O)O` ?
Resp: 0

Req: Quick check: ring closure, isolated yield of `CC(C)C[C@H](NC(=O)CNC(=O)[C@@H]1CCCN1)C(=O)NCC(=O)N[C@@H](Cc1ccccc1)C(=O)O` ?
Resp: 34

Req: Quick check: ring closure, isolated yield of `CC(C)C[C@@H](NC(=O)CNC(=O)[C@@H]1CCCN1)C(=O)NCC(=O)N[C@@H](Cc1ccccc1)C(=O)O` ?
Resp: 28

Req: Quick check: ring closure, isolated yield of `CC(C)C[C@H](NC(=O)[C@H](C)NC(=O)[C@@H]1CCCN1)C(=O)NCC(=O)N[C@@H](Cc1ccccc1)C(=O)O` ?
Resp: 12

Req: Quick check: ring closure, isolated yield of `CC(C)C[C@H](NC(=O)[C@H](COC(C)(C)C)NC(=O)[C@@H]1CCCN1)C(=O)N[C@@H](Cc1ccc(OC(C)(C)C)cc1)C(=O)N[C@@H](Cc1ccccc1)C(=O)O` ?
Resp: 22

Req: Quick check: ring closure, isolated yield of `CC(C)C[C@H](NC(=O)[C@H](COC(C)(C)C)NC(=O)[C@@H]1CCCN1)C(=O)NCC(=O)N[C@@H](Cc1ccccc1)C(=O)O` ?
Resp: 49
